# Organism: Rattus norvegicus
# ASSAY_NAME: Open TG-GATES - Regimen: Single
# Format: toxicity, organism-based, Sprague-Dawley
# Set-up: regimen Single, gender Male, age 6 weeks
# STUDY_CONDITIONS: in vivo, po, 1000 mg/kg, 6 h, tissue Blood, route gavage, dose level High
RBC below 600 x10_4/ul gives NO; RBC at or above it gives YES.

C[C@H](CS)C(=O)N1CCC[C@H]1C(=O)O; YES

## Task Decide: RBC of CCc1cc(C(N)=S)ccn1 [ETHIONAMIDE] >= 600 x10_4/ul?
## Result YES

## Task Decide: RBC of O=C(O)c1cn(C2CC2)c2cc(N3CCNCC3)c(F)cc2c1=O >= 600 x10_4/ul?
## Result NO

## Task Decide: RBC of Clc1ccccc1CN1CCc2sccc2C1 >= 600 x10_4/ul?
## Result YES
